# Tested on: HEK293T
# assay remarks: plasma membrane surface immunostaining intensity (anti-HA, deep receptor scanning) (arbitrary fluorescence units); higher = higher plasma membrane expression
# assay setup: GPCR class: A
Recorded plasma membrane surface immunostaining intensity for the following sequences
assay readout: plasma membrane surface immunostaining intensity

[
  {
    "item sequence": "METNFSTPLNEYEEVSYESAGYTVLRILPLVVLGVTFVLGVLGNGLVIWVAGFRMTRTVTTICYLNLALADFSFTATLPFLIVSMAMGEKWPFGWFLCKLIHIVVDINLFGSVFLIGFIALDRCICVLHPVWAQNHRTVSLAMKVIVGPWILALVLTLPVFLFLTTVTIPNGDTYCTFNFASWGGTPEERLKVAITMLTARGIIRFVIGFSLPMSIVAICYGLIAAKIHKKGMIKSSRPLRVLTAVVASFFICWFPFQLVALLGTVWLKEMLFYGKYKIIDILVNPTSSLAFFNSCLNPMLYVFVGQDFRERLIHSLPTSLERALSEDSAPTNDTAANSASPPAETELQAM [FPR2]",
    "reported": 6520
  },
  {
    "item sequence": "MASSTTRGPRVSDLFSGLPPAVTTPANQSAEASAGNGSVAGADAPAVTPFQSLQLVHQLKGLIVLLYSVVVVVGLVGNCLLVLVIARVRRLHNVTNFLIGNLALSDVLMCTACVPLTLAYAFEPRGWVFGGGLCHLVFFLQPVTVYVSVFTLTTIAVDRYVVLVHPLRRRISLRLSAYAVLAIWALSAVLALPAAVHTYHVELKPHDVRLCEEFWGSQERQRQLYAWGLLLVTYLLPLLVILLSYVRVSVKLRNRVVPGCVTQSQADWDRARRRRTFCLLVVIVVVFAVCWLPLHVFNLLRDLDPHAIDPYAFGLVQLLCHWLAMSSACYNPFIYAWLHDSFREELRKLLVAWPRKIAPHGQNMTVSVVI [PRLHR]",
    "reported": 5220
  },
  {
    "item sequence": "MTTSLDTVETFGTTSYYDDVGLLCEKADTRALMAQFVPPLYSLVFTVGLLGNVVVVMILIKYRRLRIMTNIYLLNLAISDLLFLVTLPFWIHYVRGHNWVFGHGMCKLLSGFYHTGLYSEIFFIILLTIDRYLAIVHAVFALRARTVTFGVITSIVTWGLAVLAALPEFIFYETEELFEETLCSALYPEDTVYSWRHFHTLRMTIFCLVLPLLVMAICYTGIIKTLLRCPSKKKYKAIRLIFVIMAVFFIFWTPYNVAILLSSYQSILFGNDCERSKHLDLVMLVTEVIAYSHCCMNPVIYAFVGERFRKYLRHFFHRHLLMHLGRYIPFLPSEKLERTSSVSPSTAEPELSIVF [CCR3]",
    "reported": 391
  },
  {
    "item sequence": "MNECHYDKHMDFFYNRSNTDTVDDWTGTKLVIVLCVGTFFCLFIFFSNSLVIAAVIKNRKFHFPFYYLLANLAAADFFAGIAYVFLMFNTGPVSKTLTVNRWFLRQGLLDSSLTASLTNLLVIAVERHMSIMRMRVHSNLTKKRVTLLILLVWAIAIFMGAVPTLGWNCLCNISACSSLAPIYSRSYLVFWTVSNLMAFLIMVVVYLRIYVYVKRKTNVLSPHTSGSISRRRTPMKLMKTVMTVLGAFVVCWTPGLVVLLLDGLNCRQCGVQHVKRWFLLLALLNSVVNPIIYSYKDEDMYGTMKKMICCFSQENPERRPSRIPSTVLSRSDTGSQYIEDSISQGAVCNKSTS [LPAR3]",
    "reported": 5910
  },
  {
    "item sequence": "MEPAPSAGAELQPPLFANASDAYPSACPSAGANASGPPGARSASSLALAIAITALYSAVCAVGLLGNVLVMFGIVRYTKMKTATNIYIFNLALADALATSTLPFQSAKYLMETWPFGELLCKAVLSIDYYNMFTSIFTLTMMSVDRYIAVCHPVKALDFRTPAKAKLINICIWVLASGVGVPIMVMAVTRPRDGAVVCMLQFPSPSWYWDTVTKICVFLFAFVVPILIITVCYGLMLLRLRSVRLLSGSKEKDRSLRRITRMVLVVVGAFVVCWAPIHIFVIVWTLVDIDRRDPLVVAALHLCIALGYANSSLNPVLYAFLDENFKRCFRQLCRKPCGRPDPSSFSRAREATARERVTACTPSDGPGGGAAA [OPRD1]",
    "reported": 6220
  },
  {
    "item sequence": "MLLETQDALYVALELVIAALSVAGNVLVCAAVGTANTLQTPTNYFLVSLAAADVAVGLFAIPFAITISLGFCTDFYGCLFLACFVLVLTQSSIFSLLAVAVDRYLAICVPLRYKSLVTGTRARGVIAVLWVLAFGIGLTPFLGWNSKDSATNNCTEPWDGTTNESCCLVKCLFENVVPMSYMVYFNFFGCVLPPLLIMLVIYIKIFLVACRQLQRTELMDHSRTTLQREIHAAKSLAMIVGIFALCWLPVHAVNCVTLFQPAQGKNKPKWAMNMAILLSHANSVVNPIVYAYRNRDFRYTFHKIISRYLLCQADVKSGNGQAGVQPALGVGL [ADORA2B]",
    "reported": 1240
  },
  {
    "item sequence": "MAANVSGAKSCPANFLAAADDKLSGFQGDFLWPILVVEFLVAVASNGLALYRFSIRKQRPWHPAVVFSVQLAVSDLLCALTLPPLAAYLYPPKHWRYGEAACRLERFLFTCNLLGSVIFITCISLNRYLGIVHPFFARSHLRPKHAWAVSAAGWVLAALLAMPTLSFSHLKRPQQGAGNCSVARPEACIKCLGTADHGLAAYRAYSLVLAGLGCGLPLLLTLAAYGALGRAVLRSPGMTVAEKLRVAALVASGVALYASSYVPYHIMRVLNVDARRRWSTRCPSFADIAQATAALELGPYVGYQVMRGLMPLAFCVHPLLYMAAVPSLGCCCRHCPGYRDSWNPEDAKSTGQALPLNATAAPKPSEPQSRELSQ [P2RY11]",
    "reported": 4350
  },
  {
    "item sequence": "MWGRLLLWPLVLGFSLSGGTQTPSVYDESGSTGGGDDSTPSILPAPRGYPGQVCANDSDTLELPDSSRALLLGWVPTRLVPALYGLVLVVGLPANGLALWVLATQAPRLPSTMLLMNLAAADLLLALALPPRIAYHLRGQRWPFGEAACRLATAALYGHMYGSVLLLAAVSLDRYLALVHPLRARALRGRRLALGLCMAAWLMAAALALPLTLQRQTFRLARSDRVLCHDALPLDAQASHWQPAFTCLALLGCFLPLLAMLLCYGATLHTLAASGRRYGHALRLTAVVLASAVAFFVPSNLLLLLHYSDPSPSAWGNLYGAYVPSLALSTLNSCVDPFIYYYVSAEFRDKVRAGLFQRSPGDTVASKASAEGGSRGMGTHSSLLQ [F2RL3]",
    "reported": 894
  }
]

// data source = the supplement of paper PMC12458215
